Recorded residual activity values for a group of molecules are listed next.
molecular target: FLT1 (human) (UniProt P17948); assay: radiometric filter-binding kinase assay; conditions: compound 1.0 µM
Sequence (P17948 whole entry, looked up): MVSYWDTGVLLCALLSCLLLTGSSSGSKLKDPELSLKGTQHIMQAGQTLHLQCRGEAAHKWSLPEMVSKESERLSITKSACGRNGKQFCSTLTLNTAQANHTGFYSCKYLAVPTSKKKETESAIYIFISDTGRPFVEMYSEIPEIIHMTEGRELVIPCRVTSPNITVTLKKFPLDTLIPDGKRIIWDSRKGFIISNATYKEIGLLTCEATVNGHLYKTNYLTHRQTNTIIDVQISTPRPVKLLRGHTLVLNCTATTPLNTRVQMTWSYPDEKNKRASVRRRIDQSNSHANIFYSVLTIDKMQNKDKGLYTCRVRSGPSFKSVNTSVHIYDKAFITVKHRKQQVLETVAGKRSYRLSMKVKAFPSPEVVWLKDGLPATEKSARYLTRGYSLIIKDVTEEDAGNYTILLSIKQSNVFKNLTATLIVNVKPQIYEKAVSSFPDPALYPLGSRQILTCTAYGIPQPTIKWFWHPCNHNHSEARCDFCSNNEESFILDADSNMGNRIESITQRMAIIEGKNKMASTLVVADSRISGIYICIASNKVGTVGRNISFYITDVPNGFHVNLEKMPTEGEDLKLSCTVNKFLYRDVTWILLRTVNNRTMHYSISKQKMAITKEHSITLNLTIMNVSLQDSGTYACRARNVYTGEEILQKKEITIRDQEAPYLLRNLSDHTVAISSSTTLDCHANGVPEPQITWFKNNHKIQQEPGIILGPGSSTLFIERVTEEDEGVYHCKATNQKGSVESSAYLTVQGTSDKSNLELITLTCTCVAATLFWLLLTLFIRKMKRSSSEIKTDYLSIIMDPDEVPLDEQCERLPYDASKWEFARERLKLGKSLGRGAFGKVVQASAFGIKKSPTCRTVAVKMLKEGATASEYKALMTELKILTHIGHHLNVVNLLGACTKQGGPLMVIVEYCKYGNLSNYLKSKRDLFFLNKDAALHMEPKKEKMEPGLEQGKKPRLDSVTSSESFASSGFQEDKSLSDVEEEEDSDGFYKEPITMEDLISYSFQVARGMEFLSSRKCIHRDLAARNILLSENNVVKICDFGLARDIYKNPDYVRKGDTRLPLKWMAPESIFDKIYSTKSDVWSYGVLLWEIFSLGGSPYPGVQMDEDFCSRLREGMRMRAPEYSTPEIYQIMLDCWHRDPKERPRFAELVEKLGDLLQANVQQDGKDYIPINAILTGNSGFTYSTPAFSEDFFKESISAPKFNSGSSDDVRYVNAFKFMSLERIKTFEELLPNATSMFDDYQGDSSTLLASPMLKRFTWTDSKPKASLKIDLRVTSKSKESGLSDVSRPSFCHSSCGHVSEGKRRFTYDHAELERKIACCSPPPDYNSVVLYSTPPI
Just the number in %, nothing appended.

Task: Lab note: need residual activity for CCNc1nc(Nc2cc(F)c(C(=O)N3CCOCC3)cc2OC)ncc1C(F)(F)F on FLT1 (human) (UniProt P17948), anyone have it?
Result: 62

Task: Lab note: need residual activity for C=C1C(=O)OC2C1CC/C(C)=C/CCC1(C)OC21 (stereo unspecified) on FLT1 (human) (UniProt P17948), anyone have it?
Result: 109

More entries:
Task: Lab note: need residual activity for CC(C)(C#N)c1ccc(N2C(=O)OCc3cnc4ccc(-c5cnc6ccccc6c5)cc4c32)cc1 on FLT1 (human) (UniProt P17948), anyone have it?
Result: 87

Task: Lab note: need residual activity for NCC(=O)Nc1ccc(-n2nc(C(F)(F)F)cc2-c2ccc3c(ccc4ccccc43)c2)cc1 on FLT1 (human) (UniProt P17948), anyone have it?
Result: 79

Task: Lab note: need residual activity for O=C(O)c1cc(N=Nc2ccc(S(=O)(=O)Nc3ccccn3)cc2)ccc1O on FLT1 (human) (UniProt P17948), anyone have it?
Result: 102

Task: Lab note: need residual activity for O=C1Nc2nc(-c3c(O)cccc3OCC3CC3)cc(C3CCCNC3)c2CO1 (stereo unspecified) on FLT1 (human) (UniProt P17948), anyone have it?
Result: 112

Task: Lab note: need residual activity for NC(=O)c1cc2c(-c3cccc(-c4ccccc4)c3)cnc(N)c2s1 on FLT1 (human) (UniProt P17948), anyone have it?
Result: 55

Task: Lab note: need residual activity for Cn1c(=O)c2c(ncn2C)n(C)c1=O on FLT1 (human) (UniProt P17948), anyone have it?
Result: 84

Task: Lab note: need residual activity for Nc1cccc2c1CN(C1CCC(=O)NC1=O)C2=O (stereo unspecified) on FLT1 (human) (UniProt P17948), anyone have it?
Result: 100

Task: Lab note: need residual activity for O=c1c(O)c(-c2ccc(O)c(O)c2)oc2cc(O)c(O)c(O)c12 on FLT1 (human) (UniProt P17948), anyone have it?
Result: 27

Task: Lab note: need residual activity for Cc1cc(SCc2sc(-c3ccc(C(F)(F)F)cc3)nc2C)ccc1OCC(=O)O on FLT1 (human) (UniProt P17948), anyone have it?
Result: 84

Task: Lab note: need residual activity for Cc1cc(NC(=O)c2cccc(NC(=O)/C=C/CN(C)C)c2)ccc1Nc1nccc(-c2cccnc2)n1 on FLT1 (human) (UniProt P17948), anyone have it?
Result: 53

Task: Lab note: need residual activity for Cc1nc(-c2ccc(OCC(C)C)c(C#N)c2)sc1C(=O)O on FLT1 (human) (UniProt P17948), anyone have it?
Result: 83

Task: Lab note: need residual activity for COc1cc(O)c2c(c1)/C=C/C[C@H](O)[C@H](O)C(=O)/C=C\C[C@H](C)OC2=O on FLT1 (human) (UniProt P17948), anyone have it?
Result: 13

Task: Lab note: need residual activity for N#Cc1c(C2CCNCC2)cc(-c2c(O)cccc2OCC2CC2)nc1N on FLT1 (human) (UniProt P17948), anyone have it?
Result: 101
